# ASSAY OVERVIEW: Kinetics analysis of interaction between streptavidin protein and biotin using Biacore biosensor
# Assay type: binding
# CONDITION NOTES: Biacore 3000, biotinylated mouse antibody captured, 1:1 binding model
ENDPOINT: Dissociation rate constant kd

Exercise: Which Dissociation rate constant kd value is on record for mcSA020: mutant core streptavidin with Y83A, R84K, E116Q (protein) core streptavidin subunit: AEAGITGTWYNQLGSTFIVTAGADGALTGTYESAVGNAESRYVLTGRYDSAPATDGSGTALGWTVAWKNNAKNAHSATTWSGQYVGGAEARINTQWLLTSGTTQANAWKSTLVGHDTFTKVKPSAAS ?
Key: 1.60 × 10^−4 S^−1
